- Target of assay: human Gastric Inhibitory Peptide Receptor (human) (UniProt P48546)
- Sequence (P48546 22-466 limits assumed): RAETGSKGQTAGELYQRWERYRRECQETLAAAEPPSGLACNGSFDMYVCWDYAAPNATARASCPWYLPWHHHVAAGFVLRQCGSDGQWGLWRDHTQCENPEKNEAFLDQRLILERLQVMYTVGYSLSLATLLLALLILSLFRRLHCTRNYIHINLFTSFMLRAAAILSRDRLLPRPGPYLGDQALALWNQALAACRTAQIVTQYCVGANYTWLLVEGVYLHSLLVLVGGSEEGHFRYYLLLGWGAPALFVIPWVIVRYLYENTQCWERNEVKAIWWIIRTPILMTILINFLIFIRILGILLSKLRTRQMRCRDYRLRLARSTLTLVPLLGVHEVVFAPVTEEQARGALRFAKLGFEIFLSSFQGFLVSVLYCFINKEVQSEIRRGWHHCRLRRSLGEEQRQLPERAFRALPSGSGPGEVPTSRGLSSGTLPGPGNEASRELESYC
- Protocol description: FACS competition with GIP-057 on CHO-K1-hGIPR cells; pIC50 category A: >8.0
*1 amine or outer side, *2 acyl side, *3 side chain or, on linkers, in order; H or OH if unused. Bridges are numbered along the chain shown (N, C = ends). Primed or numbered codes have the meaning given here. [ ]: non-standard residue; d: D form. The star is where a group is joined. Ttds = 1,13-diamino-4,7,10-trioxatridecan-succinamic acid, NCCCOCCOCCOCCCNC(=O)CCC(=O)*; DOTA(In) = O=C1CN2CCN3CCN(CC(=O)*)CCN(CC2)CC(=O)[O][In]([O]1)[O]C(=O)C3; APAc″ = 4-amino-1-carboxymethylpiperidine, NC1CCN(CC(=O)*)CC1; dE(AGLU) = D-glutamic acid bearing 1-amino-1-deoxy-D-glucitol; DOTA = O=C(O)CN1CCN(CC(=O)O)CCN(CC(=O)*)CCN(CC(=O)O)CC1; 2Lut = 2,6-lutidylidene bridge between two thiols; Trp(5-Br) = N[C@@H](Cc1c[nH]c2ccc(Br)cc12)C(=O)O; Trp(5-Cl) = N[C@@H](Cc1c[nH]c2ccc(Cl)cc12)C(=O)O; Pyridine(2,6-diCH2) = c1cc(C[*:1])nc(C[*:2])c1; Trp(6-F) = N[C@@H](Cc1c[nH]c2cc(F)ccc12)C(=O)O; APAc = 4-amino-1-carboxymethylpiperidine; mXylylene = c1cc(C[*:1])cc(C[*:2])c1; Hyp = O=C(O)[C@@H]1C[C@@H](O)CN1; Cysteamide = C(CS[*:3])N[*:1]; Suc = O=C(CCC(=O)[*:2])[*:1]; Api = NC1(C(=O)O)CCNCC1; Thp = NC1(C(=O)O)CCOCC1; Aib = CC(C)(N)C(=O)O
Property: pIC50

binder="{DOTA(In)-APAc″}-DW[Trp(5-Cl)][Hyp]E[dL]C[Thp]LI[Cysteamide] (linker 7-11 via 2Lut; also: DOTA as indium complex (InDOTA)) [InDOTA-APAc-Asp-Trp-5Clw-Hyp-Glu-leu-[Cys(2Lut)-Thp-Leu-Ile-AET]]" result="> 8 pic50"

Incoming: Note pIC50 for the binder shown: Ac-DW[Trp(5-Cl)][Hyp]Q[dL]C[Thp]LIC-NH2 (linker 7-11 via Pyridine(2,6-diCH2)) [Ac-Asp-Trp-5Clw-Hyp-Gln-leu-[Cys(2Lut)-Thp-Leu-Ile-Cys]-NH2]
Outgoing: > 8 pic50

Incoming: Note pIC50 for the binder shown: Suc-W[Trp(5-Cl)][Hyp]E[dL]C[Api]LIC-{APAc-Lys(DOTA)-NH2} (linker 6-10 via 2Lut) [HO-Succinyl-Trp-5Clw-Hyp-Glu-leu-[Cys(2Lut)-Apc-Leu-Ile-Cys]-APAc-Lys(DOTA)-NH2]
Outgoing: > 8 pic50

Incoming: Note pIC50 for the binder shown: {DOTA-Ttds}-D[Trp(6-F)][Trp(5-Br)]PE[dL]C[Aib]LI[Cysteamide] (linker 7-11 via mXylylene) [DOTA-Ttds-Asp-6Fw-5Brw-Pro-Glu-leu-[Cys(3MeBn)-Aib-Leu-Ile-AET]]
Outgoing: > 8 pic50

Incoming: Note pIC50 for the binder shown: {DOTA(In)-dE(AGLU)-APAc}-DW[Trp(5-Cl)][Hyp]E[dL]C[Thp]LIC-{APAc-dE(AGLU)-NH2} (linker 7-11 via Pyridine(2,6-diCH2)) [InDOTA-glu(AGLU)-APAc-Asp-Trp-5Clw-Hyp-Glu-leu-[Cys(2Lut)-Thp-Leu-Ile-Cys]-APAc-glu(AGLU)-NH2]
Outgoing: > 8 pic50
